The following compounds are shown together with reported activity at 1 µM values.
- System: iCell endothelial cells (human iPSC-derived ECs)
- Protocol Text: High-content imaging cytotoxicity in iCell endothelial cells, 24 h
- Assay type: cell-based
- Test Conditions: Homo sapiens, Endothelial cell, iPSC-EC, 24 hr, 1.00 µM, 0.00 µM control = 100.00, read-out: endo.mitoint.24hr
Counter-ions that a name gives are not always drawn.

{"Compound": "Oc1ccccc1-c1ccc(Cl)cc1 [2'-OH PCB3]", "activity at 1 µM / %": 108}
{"Compound": "O=S(=O)(O)Oc1ccc(-c2ccc(Cl)cc2)cc1 [4'-yl PCB 3 sulfate]", "activity at 1 µM / %": 100}
{"Compound": "O=C1C=CC(=O)C(c2ccc(Cl)cc2)=C1 [4-Cl-BQ, 2-(4-Chlorophenyl)benzo-2,5-quinone]", "activity at 1 µM / %": 99.3}
{"Compound": "Oc1ccc(-c2cccc(Cl)c2)cc1Cl [4-OH PCB11]", "activity at 1 µM / %": 97.1}
{"Compound": "Oc1cc(Cl)cc(-c2cccc(Cl)c2)c1 [5-OH PCB 11]", "activity at 1 µM / %": 92.3}
{"Compound": "O=S(=O)(O)Oc1cccc(-c2ccc(Cl)cc2)c1 [3'-yl PCB 3 sulfate]", "activity at 1 µM / %": 105}
{"Compound": "Clc1cccc(-c2cccc(Cl)c2)c1 [PCB11]", "activity at 1 µM / %": 96.1}
{"Compound": "Oc1cc(Cl)c(-c2cc(Cl)ccc2Cl)cc1Cl [4-OH PCB52]", "activity at 1 µM / %": 88.2}
{"Compound": "Oc1ccc(-c2ccc(Cl)cc2)cc1 [4'-OH PCB3]", "activity at 1 µM / %": 108}
{"Compound": "Clc1ccc(-c2ccccc2)cc1 [PCB3]", "activity at 1 µM / %": 104}

---

- Tested on: iPSC-CMs, iPSC-ECs and HUVECs phenotypes
- Protocol Text: ToxPi 2.0 integration of POD values and physicochemical descriptors
- Design: species or system human
- Test Conditions: ToxPi-scaled (0-1) score; HUVECs, tube formation, 18 h
- Method: Phenotypic responses were quantitatively assessed using concentration–response modeling as detailed elsewhere ([Sirenko et al. 2017]). Briefly, phenotypic readouts were normalized to vehicle controls and fit to a four-parameter logistic model in R studio software (version 3.1.1; R Development Core Team). […] The ability of physicochemical properties to predict differences in PODs were evaluated by multiregression and mixed-effects modeling using R. […]
Where a name gives a salt, the structure may show the parent alone.

{"Compound": "Clc1ccc(Cl)c(-c2cc(Cl)ccc2Cl)c1", "huvec.ttl.18hr": 0}
{"Compound": "O=S(=O)(O)Oc1cc(-c2ccccc2)ccc1Cl [3-PCB 3 sulfate]", "huvec.ttl.18hr": 0.09819}
{"Compound": "Clc1cccc(-c2cccc(Cl)c2)c1", "huvec.ttl.18hr": 0}
{"Compound": "Oc1ccc(-c2cccc(Cl)c2)cc1Cl", "huvec.ttl.18hr": 0.4794}

---

- Tested on: HUVECs
- Protocol Text: High-content imaging cytotoxicity in HUVECs, 24 h
- Format: cell-based, human
- Test Conditions: Homo sapiens, HUVEC, 24 h, HUVECs, 24 hr, 0.01 µM; 0.00 µM = 100.00; read-out: huvec.mitoint.24hr
Structures can show the parent of a compound that is named as a salt.

{"Compound": "O=S(=O)(O)Oc1ccc(-c2cccc(Cl)c2)cc1Cl [4-yl PCB 11 sulfate]", "Unit Symbol": "%", "activity at 0.01 µM": 95.8}
{"Compound": "Oc1cc(Cl)cc(-c2cccc(Cl)c2)c1", "Unit Symbol": "%", "activity at 0.01 µM": 89.8}
{"Compound": "O=S(=O)(O)Oc1cc(-c2ccccc2)ccc1Cl [3-yl PCB 3 sulfate]", "Unit Symbol": "%", "activity at 0.01 µM": 93.6}
{"Compound": "Oc1ccc(O)c(-c2ccc(Cl)cc2)c1", "Unit Symbol": "%", "activity at 0.01 µM": 99.1}
{"Compound": "O=S(=O)(O)Oc1cccc(-c2ccc(Cl)cc2)c1 [3'-yl PCB 3 sulfate]", "Unit Symbol": "%", "activity at 0.01 µM": 93.5}
{"Compound": "Clc1cccc(-c2cccc(Cl)c2)c1", "Unit Symbol": "%", "activity at 0.01 µM": 90.3}

---

- Tested on: iPSC-CMs, iPSC-ECs and HUVECs phenotypes
- Protocol Text: ToxPi 2.0 integration of POD values and physicochemical descriptors
- Design: species or system human
- Test Conditions: ToxPi-scaled (0-1) score; iPSC cardiomyocytes, 90 min
Where a name gives a salt, the structure may show the parent alone.
Result Type: cm.amp.avg.90min

{"Molecule": "Clc1ccc(Cl)c(-c2c(Cl)ccc(Cl)c2Cl)c1Cl [(+)-PCB 136, 2,2′,3,3′,6,6′-hexachlorobiphenyl]", "Target Of Assay": "iPSC-CMs, iPSC-ECs and HUVECs phenotypes", "Result Type": "cm.amp.avg.90min", "Observed Measurement": 0.6409}
{"Molecule": "COc1ccc(-c2ccc(Cl)cc2)cc1", "Target Of Assay": "iPSC-CMs, iPSC-ECs and HUVECs phenotypes", "Result Type": "cm.amp.avg.90min", "Observed Measurement": 0.148}
{"Molecule": "O=S(=O)(O)Oc1cc(-c2ccccc2)ccc1Cl [3-PCB 3 sulfate]", "Target Of Assay": "iPSC-CMs, iPSC-ECs and HUVECs phenotypes", "Result Type": "cm.amp.avg.90min", "Observed Measurement": 0.1033}
{"Molecule": "O=S(=O)(O)Oc1cc(Cl)c(-c2cc(Cl)ccc2Cl)cc1Cl [4-PCB 52 sulfate]", "Target Of Assay": "iPSC-CMs, iPSC-ECs and HUVECs phenotypes", "Result Type": "cm.amp.avg.90min", "Observed Measurement": 0.5595}

---

- Tested on: HUVECs
- Protocol Text: High-content imaging cytotoxicity in HUVECs, 24 h
- Format: cell-based, human
- Test Conditions: Homo sapiens, HUVEC, 24 h, HUVEC, tc, 24 hr; read-out: POD huvec.tc.24hr
Counter-ions that a name gives are not always drawn.

{"Molecule": "Oc1ccccc1-c1ccc(Cl)cc1", "Target Of Assay": "HUVECs", "minimal effective concentration / µM": 5.19}
{"Molecule": "COc1ccc(-c2ccc(Cl)cc2)cc1", "Target Of Assay": "HUVECs", "minimal effective concentration / µM": 8.6}
{"Molecule": "Oc1ccc(-c2ccc(Cl)cc2)cc1", "Target Of Assay": "HUVECs", "minimal effective concentration / µM": 7.01}
{"Molecule": "O=S(=O)(O)Oc1cccc(-c2ccc(Cl)cc2)c1 [3'-PCB 3 sulfate]", "Target Of Assay": "HUVECs", "minimal effective concentration / µM": 100}
{"Molecule": "O=S(=O)(O)Oc1cc(Cl)c(-c2cc(Cl)ccc2Cl)cc1Cl [4-PCB 52 sulfate]", "Target Of Assay": "HUVECs", "minimal effective concentration / µM": 5.38}
{"Molecule": "COc1cc(Cl)c(-c2cc(Cl)ccc2Cl)cc1Cl", "Target Of Assay": "HUVECs", "minimal effective concentration / µM": 0.78}

---

- System: iCell endothelial cells (human iPSC-derived ECs)
- Protocol Text: High-content imaging cytotoxicity in iCell endothelial cells, 24 h
- Assay type: cell-based
- Test Conditions: Homo sapiens, Endothelial cell, iPSC-EC, 24 hr, 0.10 µM, 0.00 µM control = 100.00, read-out: endo.mitoint.24hr
Counter-ions that a name gives are not always drawn.

{"Compound": "O=S(=O)(O)Oc1cccc(-c2ccc(Cl)cc2)c1 [3'-yl PCB 3 sulfate]", "activity at 0.1 µM / %": 105}
{"Compound": "Oc1cc(Cl)c(-c2cc(Cl)ccc2Cl)cc1Cl", "activity at 0.1 µM / %": 89.8}
{"Compound": "O=S(=O)(O)Oc1cc(Cl)c(-c2cc(Cl)ccc2Cl)cc1Cl [4-yl PCB 52 sulfate]", "activity at 0.1 µM / %": 90.1}
{"Compound": "COc1ccc(-c2cccc(Cl)c2)cc1Cl", "activity at 0.1 µM / %": 87}

---

- Tested on: iCell endothelial cells (human iPSC-derived ECs)
- Protocol Text: High-content imaging cytotoxicity in iCell endothelial cells, 24 h
- Assay type: cell-based
- Test Conditions: Homo sapiens, Endothelial cell, iPSC-EC, 24 hr, 10.00 µM, 0.00 µM control = 100.00, read-out: endo.cyto.24hr
Where a name gives a salt, the structure may show the parent alone.
The following compounds are shown together with reported viability at 10 µM values.

{"Compound": "Oc1cc(Cl)c(-c2cc(Cl)ccc2Cl)cc1Cl", "viability at 10 µM, %": 98}
{"Compound": "O=S(=O)(O)Oc1cc(Cl)ccc1-c1ccccc1 [2-yl PCB 3 sulfate]", "viability at 10 µM, %": 97.1}
{"Compound": "O=S(=O)(O)Oc1ccc(-c2ccc(Cl)cc2)cc1 [4'-yl PCB 3 sulfate]", "viability at 10 µM, %": 101}
{"Compound": "O=S(=O)(O)Oc1cc(-c2ccccc2)ccc1Cl [3-yl PCB 3 sulfate]", "viability at 10 µM, %": 96.5}
{"Compound": "Oc1ccc(O)c(-c2ccc(Cl)cc2)c1", "viability at 10 µM, %": 86.5}
